Tested on: HCT116 colon cancer cell line
EXPERIMENT: Cytotoxicity in TTK-expressed HCT116 cells
Assay type: cell-based
MEASUREMENT_SETUP: Homo sapiens, HCT-116, 120 h, 5 days
Protocol: To determine the cytotoxicity of a compound represented by Chemical Formula 1 according to the present invention to HCT116 cells, the following test was conducted. HCT116 colon cancer cell line purchased from ATCC was inoculated into each well of a 96-well plate at a volume of 90 μL containing 2,000 cells. […] After 5 days, the number of cells was measured by CCK8 test method, and the cytotoxicity was determined by calculating the IC50 value for cytotoxicity of each compound.
ENDPOINT: IC50

// known answers, use as guide
COMPOUND	IC50
COc1cc(N2CCOCC2)ccc1Nc1nc(NC2CCCCC2)c2c(-c3cnoc3)n[nH]c2n1	< 150 nM
COc1cc(C(=O)N2CCN(C)CC2)ccc1Nc1nc(NC2CCCCC2)c2c(-c3cnn(C)c3)n[nH]c2n1	150 to 500 nM
COc1cc(N2CCOCC2)ccc1Nc1nc(NC2CCCCC2)c2c(-c3nnco3)n[nH]c2n1	150 to 500 nM
COc1cc(N2CCOCC2)ccc1Nc1nc(NC2CCOCC2)c2c(-c3cnn(C(F)F)c3)n[nH]c2n1	150 to 500 nM
COc1cc(N2CCOCC2)ccc1Nc1nc(NC2CCOCC2)c2c(-c3ncco3)n[nH]c2n1	< 150 nM

The value of IC50 measured for the compound COc1cc(N2CCOCC2)ccc1Nc1nc(NC2CCCCC2)c2c(-c3ccc4nc(C)oc4c3)n[nH]c2n1 turned out to be < 150 nM

The value of IC50 measured for the compound COc1cc(N2CCOCC2)ccc1Nc1nc(NC2CCCCC2)c2c(-c3cccc(NS(C)(=O)=O)c3)n[nH]c2n1 turned out to be > 1000 nM

The value of IC50 measured for the compound COc1cc(N2CCOCC2)ccc1Nc1nc(NC2CCCCC2)c2c(-c3ccc4[nH]ncc4c3)n[nH]c2n1 turned out to be 500 to 1000 nM
